Tested on: KRAS-mutant PDC tumor spheroid with HUVEC/MSC, viability
Measurement description: Anticancer human tumor 327498-153-R-J2-PDC patient-derived uterine carcinosarcoma cell line growth inhibition [KRAS2]; active means viability on the fitted dose curve at most 10% of control; inactive means the rest
Particulars: second compound 0.1 µM; first compound 0.01 µM
Outcome codes: 1 for active, 0 for inactive

>  <Compound>
CC(=O)Nc1cccc(-n2c(=O)n(C3CC3)c(=O)c3c(Nc4ccc(I)cc4F)n(C)c(=O)c(C)c32)c1 + C=CC(=O)N1CCN(c2nc(=O)n(-c3c(C)ccnc3C(C)C)c3nc(-c4c(O)cccc4F)c(F)cc23)C(C)C1

>  <Qualitative label>
0

$$$$
>  <Compound>
CC(=O)OC12COC1CC(O)C1(C)C(=O)C(O)C3=C(C)C(OC(=O)C(O)C(NC(=O)OC(C)(C)C)c4ccccc4)CC(O)(C(OC(=O)c4ccccc4)C21)C3(C)C (stereo not given) + CNCc1ccccc1-c1csc(C(C)Nc2nc(C)nc3cc(OC)c(OC)cc23)c1

>  <Qualitative label>
1

$$$$
>  <Compound>
CN(C)C/C=C/C(=O)Nc1cc2c(Nc3ccc(F)c(Cl)c3)ncnc2cc1O[C@H]1CCOC1 + C=CC(=O)N1CCN(c2nc(OCC3CCCN3C)nc3c2CCN(c2cccc4cccc(C)c24)C3)CC1CC#N

>  <Qualitative label>
0

$$$$
>  <Compound>
CC1COCCN1c1cc(-c2ccnn2C)c2ccnc(-c3ccn[nH]3)c2n1 (stereo not given) + C=CC(=O)N1CCN(c2nc(=O)n(-c3c(C)ccnc3C(C)C)c3nc(-c4c(O)cccc4F)c(F)cc23)C(C)C1

>  <Qualitative label>
0

$$$$
>  <Compound>
Cn1ncnc1[C@H]1c2n[nH]c(=O)c3cc(F)cc(c23)N[C@@H]1c1ccc(F)cc1 + CNCc1ccccc1-c1csc(C(C)Nc2nc(C)nc3cc(OC)c(OC)cc23)c1

>  <Qualitative label>
0

$$$$
>  <Compound>
Cn1ncnc1[C@H]1c2n[nH]c(=O)c3cc(F)cc(c23)N[C@@H]1c1ccc(F)cc1 + CC1OCC2(CCN(c3cnc(Sc4ccnc(N)c4Cl)c(N)n3)CC2)C1N

>  <Qualitative label>
0

$$$$
>  <Compound>
CN(C)C/C=C/C(=O)Nc1cc2c(Nc3ccc(F)c(Cl)c3)ncnc2cc1O[C@H]1CCOC1 + COc1cc2nc(C)nc(NC(C)c3cc(N)cc(C(F)(F)F)c3)c2cc1OC1CCOC1

>  <Qualitative label>
0

$$$$
>  <Compound>
CC(=O)Nc1cccc(-n2c(=O)n(C3CC3)c(=O)c3c(Nc4ccc(I)cc4F)n(C)c(=O)c(C)c32)c1 + CNCc1ccccc1-c1csc(C(C)Nc2nc(C)nc3cc(OC)c(OC)cc23)c1

>  <Qualitative label>
0

$$$$
>  <Compound>
CC(=O)Nc1cccc(-n2c(=O)n(C3CC3)c(=O)c3c(Nc4ccc(I)cc4F)n(C)c(=O)c(C)c32)c1 + C=CC(=O)N1CCN(c2nc(OCC3CCCN3C)nc3c2CCN(c2cccc4cccc(C)c24)C3)CC1CC#N

>  <Qualitative label>
0

$$$$
>  <Compound>
CC(=O)OC12COC1CC(O)C1(C)C(=O)C(O)C3=C(C)C(OC(=O)C(O)C(NC(=O)OC(C)(C)C)c4ccccc4)CC(O)(C(OC(=O)c4ccccc4)C21)C3(C)C (stereo not given) + COc1cc2nc(C)nc(NC(C)c3cc(N)cc(C(F)(F)F)c3)c2cc1OC1CCOC1

>  <Qualitative label>
1

$$$$

###

Test system: KRAS-mutant PDC tumor spheroid with HUVEC/MSC, viability
Measurement description: Anticancer human tumor 327498-153-R-J2-PDC cell line growth inhibition [KRAS2]; active = viability on the fitted dose curve at most 10% of control; inactive = the rest;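 further: spheroids exposed to agents for seven days before reading; 100% = DMSO vehicle wells so lower means fewer viable cells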
Particulars: second compound 3.16 µM; first compound 1 µM
Outcome codes: label 1 for active, label 0 for inactive

>  <Compound>
Cn1nccc1Nc1nccc(-c2cc3c(s2)C(C)(C)N(CCN2CCOCC2)C3=O)n1 + COc1cc2nc(C)nc(NC(C)c3cc(N)cc(C(F)(F)F)c3)c2cc1OC1CCOC1

>  <Assay system>
KRAS-mutant PDC tumor spheroid with HUVEC/MSC, viability

>  <Qualitative label>
label 0

$$$$
>  <Compound>
O=C(c1cc(Cc2n[nH]c(=O)c3ccccc23)ccc1F)N1CCN(C(=O)C2CC2)CC1 + C=CC(=O)N1CCN(c2nc(OCC3CCCN3C)nc3c2CCN(c2cccc4cccc(C)c24)C3)CC1CC#N

>  <Assay system>
KRAS-mutant PDC tumor spheroid with HUVEC/MSC, viability

>  <Qualitative label>
label 1

$$$$
>  <Compound>
CC(=O)OC12COC1CC(O)C1(C)C(=O)C(O)C3=C(C)C(OC(=O)C(O)C(NC(=O)OC(C)(C)C)c4ccccc4)CC(O)(C(OC(=O)c4ccccc4)C21)C3(C)C (stereo not given) + CNCc1ccccc1-c1csc(C(C)Nc2nc(C)nc3cc(OC)c(OC)cc23)c1

>  <Assay system>
KRAS-mutant PDC tumor spheroid with HUVEC/MSC, viability

>  <Qualitative label>
label 1

$$$$
>  <Compound>
CC1(C)CCC(CN2CCN(c3ccc(C(=O)NS(=O)(=O)c4ccc(NCC5CCOCC5)c([N+](=O)[O-])c4)c(Oc4cnc5[nH]ccc5c4)c3)CC2)=C(c2ccc(Cl)cc2)C1 + CC1OCC2(CCN(c3cnc(Sc4ccnc(N)c4Cl)c(N)n3)CC2)C1N

>  <Assay system>
KRAS-mutant PDC tumor spheroid with HUVEC/MSC, viability

>  <Qualitative label>
label 0

$$$$
>  <Compound>
CC(=O)OC12COC1CC(O)C1(C)C(=O)C(O)C3=C(C)C(OC(=O)C(O)C(NC(=O)OC(C)(C)C)c4ccccc4)CC(O)(C(OC(=O)c4ccccc4)C21)C3(C)C (stereo not given) + CC1OCC2(CCN(c3cnc(Sc4ccnc(N)c4Cl)c(N)n3)CC2)C1N

>  <Assay system>
KRAS-mutant PDC tumor spheroid with HUVEC/MSC, viability

>  <Qualitative label>
label 1

$$$$
>  <Compound>
CC1OCC2(CCN(c3cnc(Sc4ccnc(N)c4Cl)c(N)n3)CC2)C1N (stereo not given) + COc1cc2nc(C)nc(NC(C)c3cc(N)cc(C(F)(F)F)c3)c2cc1OC1CCOC1

>  <Assay system>
KRAS-mutant PDC tumor spheroid with HUVEC/MSC, viability

>  <Qualitative label>
label 0

$$$$
>  <Compound>
CC(=O)OC12COC1CC(O)C1(C)C(=O)C(O)C3=C(C)C(OC(=O)C(O)C(NC(=O)OC(C)(C)C)c4ccccc4)CC(O)(C(OC(=O)c4ccccc4)C21)C3(C)C (stereo not given) + COc1cc2nc(C)nc(NC(C)c3cc(N)cc(C(F)(F)F)c3)c2cc1OC1CCOC1

>  <Assay system>
KRAS-mutant PDC tumor spheroid with HUVEC/MSC, viability

>  <Qualitative label>
label 1

$$$$
>  <Compound>
CC1COCCN1c1cc(-c2ccnn2C)c2ccnc(-c3ccn[nH]3)c2n1 (stereo not given) + C=CC(=O)N1CCN(c2nc(OCC3CCCN3C)nc3c2CCN(c2cccc4cccc(C)c24)C3)CC1CC#N

>  <Assay system>
KRAS-mutant PDC tumor spheroid with HUVEC/MSC, viability

>  <Qualitative label>
label 1

$$$$
>  <Compound>
COc1cc2nccc(Oc3ccc(NC(=O)C4(C(=O)Nc5ccc(F)cc5)CC4)cc3)c2cc1OC + C=CC(=O)N1CCN(c2nc(=O)n(-c3c(C)ccnc3C(C)C)c3nc(-c4c(O)cccc4F)c(F)cc23)C(C)C1

>  <Assay system>
KRAS-mutant PDC tumor spheroid with HUVEC/MSC, viability

>  <Qualitative label>
label 0

$$$$
>  <Compound>
COC(=O)c1ccc2c(C(=Nc3ccc(N(C)C(=O)CN4CCN(C)CC4)cc3)c3ccccc3)c(O)[nH]c2c1 + COc1cc2nc(C)nc(NC(C)c3cc(N)cc(C(F)(F)F)c3)c2cc1OC1CCOC1

>  <Assay system>
KRAS-mutant PDC tumor spheroid with HUVEC/MSC, viability

>  <Qualitative label>
label 0

$$$$

###

Test system: KRAS-mutant PDC tumor spheroid with HUVEC/MSC, viability
Measurement description: Anticancer human tumor 327498-153-R-J2-PDC cell line growth inhibition [KRAS2];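 further: spheroids exposed to agents for seven days before reading; 100% = DMSO vehicle wells so lower means fewer viable cells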
Particulars: second compound 0.0316 µM; first compound 0.001 µM; hits give low values
# viability, T/C annotations

>  <Compound>
CN(C)C/C=C/C(=O)Nc1cc2c(Nc3ccc(F)c(Cl)c3)ncnc2cc1O[C@H]1CCOC1 + C=CC(=O)N1CCN(c2nc(OCC3CCCN3C)nc3c2CCN(c2cccc4cccc(C)c24)C3)CC1CC#N

>  <U>
%

>  <viability, T/C>
80.8

$$$$
>  <Compound>
CC(=O)Nc1cccc(-n2c(=O)n(C3CC3)c(=O)c3c(Nc4ccc(I)cc4F)n(C)c(=O)c(C)c32)c1 + C=CC(=O)N1CCN(c2nc(OCC3CCCN3C)nc3c2CCN(c2cccc4cccc(C)c24)C3)CC1CC#N

>  <U>
%

>  <viability, T/C>
57.4

$$$$
>  <Compound>
CC(C)n1nc(-c2ccc3oc(N)nc3c2)c2c(N)ncnc21 + C=CC(=O)N1CCN(c2nc(OCC3CCCN3C)nc3c2CCN(c2cccc4cccc(C)c24)C3)CC1CC#N

>  <U>
%

>  <viability, T/C>
49.2

$$$$
>  <Compound>
Cn1ncnc1[C@H]1c2n[nH]c(=O)c3cc(F)cc(c23)N[C@@H]1c1ccc(F)cc1 + C=CC(=O)N1CCN(c2nc(OCC3CCCN3C)nc3c2CCN(c2cccc4cccc(C)c24)C3)CC1CC#N

>  <U>
%

>  <viability, T/C>
69.2

$$$$
